Molecular target: T1, histidine-tagged human Siglec-7 (NovoProtein) (human, UniProt Q9Y286 19-353)
T1 construct: Bought protein; also called recombinant human Siglec-7; recombinant Siglec-7; not shown: histidine tag
T1 sequence (Q9Y286 19-353 limits assumed): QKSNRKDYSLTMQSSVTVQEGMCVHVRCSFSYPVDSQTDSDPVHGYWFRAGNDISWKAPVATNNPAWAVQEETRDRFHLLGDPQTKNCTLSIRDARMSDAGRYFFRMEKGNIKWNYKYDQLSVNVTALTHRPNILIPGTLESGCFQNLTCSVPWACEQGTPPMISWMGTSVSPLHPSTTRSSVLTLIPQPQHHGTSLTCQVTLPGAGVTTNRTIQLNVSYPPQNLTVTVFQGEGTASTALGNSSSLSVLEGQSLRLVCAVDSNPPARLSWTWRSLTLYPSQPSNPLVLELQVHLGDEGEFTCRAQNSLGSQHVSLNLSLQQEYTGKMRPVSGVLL
Assay: BLI, antibody captured
Measured Parameter: koff (s⁻¹)
Your answer is read as s⁻¹, so omit the unit and give the number.

Example results:
Binder	Measured Parameter	Uom	Recorded Number
S7AB-H8.41 (antibody, V domains shown) VH: QVQLVQSGAEVKKPGASVKVSCKASGYAFTETWMNWVRQAPGQGLEWIGRIFPGLGHTNYAQKFQGRATLTEDTSTSTAYMELSSLRSEDTAVYYCARDYSDYYFDYWGQGTLVTVSS VL: DIQMTQSPSSLSASVGDRVTITCRGSQDINTYLNWYQQKPGKAPKLLIYYTSRLHSGVPSRFSGSGSGTDYTLTISSLQPEDFATYYCQQGNILPWTFGQGTKLEIK	koff	s⁻¹	9.12e-05
S7AB-H8.16 (antibody, V domains shown) VH: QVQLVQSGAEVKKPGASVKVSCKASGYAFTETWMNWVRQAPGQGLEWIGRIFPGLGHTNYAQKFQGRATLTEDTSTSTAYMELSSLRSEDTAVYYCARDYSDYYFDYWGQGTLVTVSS VL: DIQMTQSPSSLSASVGDRVTITCRGSQDTNTYLNWYQQKPGKAPKLLIYYTSRLHSGVPSRFSGSGSGTDYTLTISSLQPEDFATYYCQQGNTLPWTFGQGTKLEIK	koff	s⁻¹	0.000165

Next item in the queue.
Query S7AB-H8.4 (antibody, V domains shown) VH: QVQLVQSGAEVKKPGASVKVSCKASGYAFTAAWMNWVRQAPGQGLEWIGRIFPGLGHTNYAQKFQGRATLTEDTSTSTAYMELSSLRSEDTAVYYCARDYSDYYFDYWGQGTLVTVSS VL: DIQMTQSPSSLSASVGDRVTITCRGSQDINTYLNWYQQKPGKAPKLLIYYTSRLHSGVPSRFSGSGSGTDYTLTISSLQPEDFATYYCQQGNLLPWTFGQGTKLEIK yields koff of 3.15e-05
